The origin of these recorded values is the supplement of paper PMC8728848.

Can you tell me glycan array binding signal (z-score) for the items I'm about to list?
Target: Neu5Ac(a2-8)Neu5Ac(a2-3)[Gal(b1-3)GalNAc(b1-4)]Gal(b1-4)Glc
Assay: glycan array binding signal (z-score within array); higher = stronger binding
Settings: glycan notation: IUPAC condensed, linker removed
The entries come from a sample that favours the strongest signals as a whole.
Response field accepts a number only; no unit should be typed.

stdin: If you can, please state the reported glycan array binding signal (z-score) value of DC-ASGPR L+GEE (Homo sapiens) (protein) MTRTYENFQYLENKVKVQGFKNGPLPLQSLLQRLRSGPCHLLLSLGLGLLLLVIICVVGFQNSKFQRDLVTLRTDFSNFTSNTVAEIQALTSQGSSLEETIASLKAEVEGFKQERQAGVSELQEHTTQKAHLGHCPHCPSVCVPVHSEMLLRVQQLVQDLKKLTCQVATLNNNGEEASTEGTCCPVNWVEHQDSCYWFSHSGMSWAEAEKYCQLKNAHLVVINSREEQNFVQKYLGSAYTWMGLSDPEGAWKWVDGTDYATGFQNWKPGQPDDWQGHGLGGGEDCAHFHPDGRWNDDVCQRPYHWVCEAGLGQTSQESH .
stdout: 0.544

stdin: Consider next the binder CLEC5A (Homo sapiens), Q9NY25 (protein) MNWHMIISGLIVVVLKVVGMTLFLLYFPQIFNKSNDGFTTTRSYGTVSQIFGSSSPSPNGFITTRSYGTVCPKDWEFYQARCFFLSTSESSWNESRDFCKGKGSTLAIVNTPEKLKFLQDITDAEKYFIGLIYHREEKRWRWINNSVFNGNVTNQNQNFNCATIGLTKTFDAASCDISYRRICEKNAK in the same way.
stdout: -0.133

stdin: Consider next the binder Erv41-EDTA (Saccharomyces cerevisiae), Q04651 (protein) MKFLVNVALVFMVVYISYIYAAAPEHHHHHHDYDIPTTENLYFQGAMGYIDQQYVVDSQVRDTVQINMDIYVNTKCDWLQINVRDQTMDRKLVLEELQLEEMPFFIPYDTKVNDINEIITPELDEILGEAIPAEFREKLDTRSFFDESDPNKAHLPEFNGCHVFGSIPVNRVSGELQITAKSLGYVASRKAPLEELKFNHVINEFSFGDFYPYIDNPLDNTAQFNQDEPLTTYVYYTSVVPTLFKKLGAEVDTNQYSVNDYRYLYKDVAAKGDKMPGIFFKYNFEPLSIVVSDVRL in the same way.
stdout: 1.35
